These data points were gathered from the supplement of paper PMC9112550.

Tested on: Escherichia coli TOP10;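 note: peptides expressed intracellularly from a pBAD plasmid library in pooled LB shake-flask culture, induced with 0.3% L-arabinose, DNA abundance read by NGS, three biological replicates, DESeq2 with apeglm shrinkage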
Assay: shrunken log2 fold change of peptide-encoding DNA abundance (4.5 h post-induction vs induction); higher = less antimicrobial activity (less host growth inhibition)
Details: time post-induction: 4.5 h; library: site-saturation at positions 5, 18, 19, 20
shrunken log2 fold change by entry:
metric.name: shrunken log2 fold change

• RRIRNRPPRLPRPRPRPNRCPRP = -0.0238
• RRIRFRPPRLPRPRPRPNKQPRP = 0.0839
• RRIRWRPPRLPRPRPRPMKQPRP = -0.208
• RRIRTRPPRLPRPRPRPYLEPRP = -0.573
• RRIRGRPPRLPRPRPRPMQWPRP = -0.0537
• RRIRSRPPRLPRPRPRPCSHPRP = -0.174
• RRIRCRPPRLPRPRPRPMYHPRP = -0.974
• RRIRVRPPRLPRPRPRPAGGPRP = 1.15
